Source: patent US20240360208A1

system_name: human CCL2 (MCP1) - wild type (wt) (human, UniProt P13500 24-99)
method_summary: cell-based or functional assay
readout_name: THP1 chemotaxis [fold change compared to IgG control] (fold)
Give the value, in units of fold, as a plain number.

Query string: Output THP1 chemotaxis [fold change compared to IgG control] of 1G9 (antibody, IgG1, V domains shown, also called CCL2-0010) VH: QSLEESGGDLVKPGASLTLTCKASGIDFSLYSYMCWVRQAPGKGLEWIACVDAGASGSTYYASWAKGRFTISKTSSTTVTLQMTSLTAADTATYFCARGILYYTWPYPAGAIDAFDSWGPGTLVTVSS VL: AYDMTQTPASVSEPVGGTVTIKCQASESISNYLSWYQQKPGQPPKLLIYKASTLASGVPSRFKGSGSGTEYTVTISGVQSDDAATYYCQQSYSSSNVFNTFGGGTEVVVK
Result string: 0.9
